- TARGET_OF_ASSAY: Glutamate NMDA receptor
- EXPERIMENT: The compound was tested for NMDA antagonist activity against [3H]-CGS- 19755 binding in rat cortex preparation
Record form. Attribute: pKi. Fill in for each entry.
FYI, pKi means -log10 of a concentration in mol per litre.

Query: Which pKi reading was recorded for the compound O=C(CP(=O)(O)O)[C@H]1CCCN[C@H]1C(=O)O (stereo in doubt; 14) ?
Reply: 7.19

Query: Request: O=C(O)[C@@H]1C[C@H](CP(=O)(O)O)CCN1 (single isomer, unassigned)
Reply: 7.40

Query: Request: O=C(CP(=O)(O)O)[C@H]1CCCN[C@H]1C(=O)O (stereo in doubt; 1)
Reply: 7.16

Query: Request: O=C(O)[C@@H]1NCCC[C@@H]1C(O)CP(=O)(O)O (stereo not given in full)
Reply: 6.97
